Hey, just so you know, these numbers are from patent US20160083466A1.

# Measured target: T1, human IL-25 expressed with a C-terminal myc-myc-hexahistidine tag (human)
# T1 construct: also called human IL-25-MMH; hIL-25-MMH
# T1 chain: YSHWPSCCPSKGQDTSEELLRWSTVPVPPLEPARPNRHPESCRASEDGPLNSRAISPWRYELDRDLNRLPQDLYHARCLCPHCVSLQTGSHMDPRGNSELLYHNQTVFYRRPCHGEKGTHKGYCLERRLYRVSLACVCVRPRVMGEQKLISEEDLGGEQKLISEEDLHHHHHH
# Assay notes: SPR Biacore, captured mAb, 25°C;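 also: biacore 4000 SPR with IL-25-MMH as analyte over purified anti-IL-25 antibodies, association and dissociation rates derived from fitting sensorgrams to a 1:1 binding model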
Parameter: 100 nM Human IL-25-MMH Bound (RU)
Your answer is read as RU, so omit the unit and give the number.

Worked examples, 2 binders total:
For H4H10861P (antibody, human IgG4, V domains shown) VH: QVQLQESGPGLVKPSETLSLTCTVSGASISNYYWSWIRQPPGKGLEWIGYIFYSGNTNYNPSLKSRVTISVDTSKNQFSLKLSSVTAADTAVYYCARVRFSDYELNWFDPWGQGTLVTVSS VL: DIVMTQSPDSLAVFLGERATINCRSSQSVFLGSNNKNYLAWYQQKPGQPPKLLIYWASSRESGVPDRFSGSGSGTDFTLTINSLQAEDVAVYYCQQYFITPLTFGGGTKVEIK the binder record lists 100 nM Human IL-25-MMH Bound (RU) as 47

H4H10905P (antibody, human IgG4, V domains shown) VH: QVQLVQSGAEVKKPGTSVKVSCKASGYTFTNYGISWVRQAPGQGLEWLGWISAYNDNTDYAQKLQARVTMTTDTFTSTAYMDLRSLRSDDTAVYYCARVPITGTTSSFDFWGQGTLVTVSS VL: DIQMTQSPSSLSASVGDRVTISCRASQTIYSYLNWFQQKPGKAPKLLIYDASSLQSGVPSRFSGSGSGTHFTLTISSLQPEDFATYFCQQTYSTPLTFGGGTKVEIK yielded 100 nM Human IL-25-MMH Bound (RU) of 49

As a next step, examine the binder that follows.
Lookup result for H4H10901P (antibody, human IgG4, V domains shown) VH: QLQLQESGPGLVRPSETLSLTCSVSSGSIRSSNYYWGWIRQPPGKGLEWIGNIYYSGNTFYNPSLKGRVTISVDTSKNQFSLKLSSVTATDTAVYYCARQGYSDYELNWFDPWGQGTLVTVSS VL: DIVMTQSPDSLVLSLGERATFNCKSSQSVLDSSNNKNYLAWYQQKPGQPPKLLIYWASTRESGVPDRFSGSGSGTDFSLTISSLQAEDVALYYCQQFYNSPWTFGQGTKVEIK ; measured 100 nM Human IL-25-MMH Bound (RU): 62
